experimental_system: T1, mouse SIRPA variant hmSIRPA_Δ0 (mouse (with human residues), UniProt P97797 35-513)
T1 construct: FLAG-tagged (pFLAG V5-DEST), on 293α cells
T1 chain: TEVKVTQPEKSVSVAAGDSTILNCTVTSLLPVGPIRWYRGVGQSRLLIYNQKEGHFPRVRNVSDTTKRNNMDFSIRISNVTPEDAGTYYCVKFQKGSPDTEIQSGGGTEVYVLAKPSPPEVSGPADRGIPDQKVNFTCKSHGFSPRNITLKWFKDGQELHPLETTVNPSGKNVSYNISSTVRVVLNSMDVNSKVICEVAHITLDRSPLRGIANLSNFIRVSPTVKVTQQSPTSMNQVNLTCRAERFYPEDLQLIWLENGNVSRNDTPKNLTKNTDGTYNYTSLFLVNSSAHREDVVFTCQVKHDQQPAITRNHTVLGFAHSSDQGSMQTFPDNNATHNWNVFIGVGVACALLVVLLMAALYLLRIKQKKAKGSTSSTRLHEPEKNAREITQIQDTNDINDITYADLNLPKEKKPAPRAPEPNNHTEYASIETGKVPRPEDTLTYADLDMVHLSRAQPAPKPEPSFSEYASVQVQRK
assay_summary: cell-based ELISA on 293α cells expressing FLAG-tagged hmSIRPA_Δ0; Abs 490 normalized to FLAG tag [i]
metric_name: binding result

1. humanized anti-SIRPA antibody hD13_H2L2 (antibody, human IgG4 S228P, kappa, F234A L235A, V domains shown, hH2 heavy chain (IgG4proFALA) and hL2 kappa light chain; also called H2L2 antibody) VH: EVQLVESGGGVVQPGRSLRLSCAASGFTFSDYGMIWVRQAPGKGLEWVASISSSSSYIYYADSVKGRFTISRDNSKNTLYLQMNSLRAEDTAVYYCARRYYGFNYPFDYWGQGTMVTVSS VL: AIQLTQSPSSLSASVGQRVTITCGASKSVRTYMHWYQQKPGKAPKLLIYSASNLEAGVPSRFSGSGSGTDFTLTISSLQPEDFATYYCQQSNEPPYTFGQGTKLEIKR = binds
